- Test Target: PBP3 from Pseudomonas aeruginosa (PAO1) (Pseudomonas aeruginosa, UniProt G3XD46)
- Sequence (G3XD46 whole entry): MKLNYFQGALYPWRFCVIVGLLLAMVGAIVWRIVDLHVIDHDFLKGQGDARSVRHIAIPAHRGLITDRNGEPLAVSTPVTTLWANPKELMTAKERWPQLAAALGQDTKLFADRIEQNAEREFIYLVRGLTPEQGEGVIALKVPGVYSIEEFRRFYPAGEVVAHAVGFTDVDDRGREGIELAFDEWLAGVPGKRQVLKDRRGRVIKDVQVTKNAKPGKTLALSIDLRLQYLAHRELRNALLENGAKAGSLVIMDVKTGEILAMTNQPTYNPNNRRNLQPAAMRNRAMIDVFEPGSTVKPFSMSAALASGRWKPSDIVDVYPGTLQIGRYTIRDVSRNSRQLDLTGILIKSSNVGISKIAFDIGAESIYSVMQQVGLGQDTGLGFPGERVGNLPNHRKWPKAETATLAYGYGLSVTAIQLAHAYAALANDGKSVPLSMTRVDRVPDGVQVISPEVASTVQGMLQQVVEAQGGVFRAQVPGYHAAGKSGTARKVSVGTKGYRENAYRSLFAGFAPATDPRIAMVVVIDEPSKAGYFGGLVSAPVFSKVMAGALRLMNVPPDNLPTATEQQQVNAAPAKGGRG
- Experimental Details: Bocillin-FL fluorescence polarization competition binding, P. aeruginosa PBP3
- Condition Set: Binding affinity to P. aeruginosa PBP3; fluorescence polarization competition binding assay using Bocillin-FL; read-out: P. aeruginosa PBP3 Potency
pIC50: −log10 of the molar value.
Endpoint: pIC50

compound="O=C(NCCCN1CCN(C(=O)NC(C(=O)N[C@H]2Cc3ccc(F)c(C(=O)O)c3OB2O)c2cc(F)c(O)c(O)c2Cl)C(=O)C1=O)c1ccc(F)c(O)c1F (stereo partly drawn)" test_target="PBP3 from Pseudomonas aeruginosa (PAO1) (Pseudomonas aeruginosa, UniProt G3XD46)" assay_result="> 5.00"
compound="O=C(NCCCS(=O)(=O)N1CCN(C(=O)N[C@H](C(=O)N[C@H]2Cc3ccc(F)c(C(=O)O)c3OB2O)c2ccc(P(=O)(O)O)cc2)C1=O)c1ccc(O)c(O)c1Cl (single isomer, unassigned)" test_target="PBP3 from Pseudomonas aeruginosa (PAO1) (Pseudomonas aeruginosa, UniProt G3XD46)" assay_result="< 3.60"
compound="O=C(O)c1c(F)ccc2c1OB(O)[C@@H](NC(=O)[C@H](NC(=O)N1CCN(C3CCN(C(=O)Nc4cc(O)ccc4Cl)CC3)C1=O)c1cc(F)c(O)c(O)c1Cl)C2 (single isomer, unassigned)" test_target="PBP3 from Pseudomonas aeruginosa (PAO1) (Pseudomonas aeruginosa, UniProt G3XD46)" assay_result="> 5.00"

* * *

- Test Target: PBP3 from Pseudomonas aeruginosa (PAO1) (Pseudomonas aeruginosa)
- Experimental Details: Bocillin-FL fluorescence polarization competition binding, P. aeruginosa PBP3
- Condition Set: Binding affinity to P. aeruginosa PBP3; fluorescence polarization competition binding assay using Bocillin-FL; read-out: P. aeruginosa PBP3 Potency
pIC50: −log10 of the molar value.
The entries below are paired with their reported pIC50.
Endpoint: pIC50

compound="CC(C)(C)C(=O)NC(C(=O)N[C@H]1Cc2cccc(C(=O)O)c2OB1O)c1ccc(P(=O)(O)O)cc1 (stereo partly drawn)" test_target="PBP3 from Pseudomonas aeruginosa (PAO1) (Pseudomonas aeruginosa)" assay_result="4.30 to 5.00"
compound="O=C(O)c1c(F)ccc2c1OB(O)[C@@H](NC(=O)C(NC(=O)N1CCN(C3CCN(C(=O)Nc4cc(O)ccc4F)CC3)C(=O)C1=O)c1cc(F)c(O)c(O)c1Cl)C2 (stereo partly drawn)" test_target="PBP3 from Pseudomonas aeruginosa (PAO1) (Pseudomonas aeruginosa)" assay_result="> 5.00"
compound="O=C(O)c1cccc2c1OB(O)[C@@H](NC(=O)C(NC(=O)N1CCCNC1=O)c1ccc(P(=O)(O)O)cc1)C2 (stereo partly drawn)" test_target="PBP3 from Pseudomonas aeruginosa (PAO1) (Pseudomonas aeruginosa)" assay_result="> 5.00"
compound="O=C(NCCN1CCN(C(=O)NC(C(=O)N[C@H]2Cc3ccc(F)c(C(=O)O)c3OB2O)c2ccc(P(=O)(O)O)cc2)C(=O)C1=O)c1ccc(O)c(O)c1Cl (stereo partly drawn)" test_target="PBP3 from Pseudomonas aeruginosa (PAO1) (Pseudomonas aeruginosa)" assay_result="> 5.00"
compound=O=C(NCCCS(=O)(=O)N1CCN(C(=O)N[C@H](C(=O)N[C@H]2Cc3ccc(F)c(C(=O)O)c3OB2O)c2cc(F)c(O)c(O)c2Cl)C1=O)c1cccc(O)c1 test_target="PBP3 from Pseudomonas aeruginosa (PAO1) (Pseudomonas aeruginosa)" assay_result="> 5.00"
compound=O=C(NCCN1CCN(C(=O)N[C@@H](C(=O)N[C@H]2Cc3ccc(F)c(C(=O)O)c3OB2O)c2cc(F)c(O)c(O)c2Cl)C(=O)C1=O)Nc1ccncc1 test_target="PBP3 from Pseudomonas aeruginosa (PAO1) (Pseudomonas aeruginosa)" assay_result="> 5.00"

Attribution: patent US20240270762A1
